- Test system: PRP4
- protocol_conditions: concentration: 1 μM, replicates: in singlicate; n = 1;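 also: KINOMEscan kinase panel screen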
measure_name: %Inh (%)
Quick note: give the figure in %, leave out the unit.

Previously resolved entries follow.
Q: Report %Inh from PRP4 testing of CCc1ccnc(/C=C/c2n[nH]c3cc(Sc4ccccc4C(=O)NC)ccc23)c1
Result: 0

Q: Consider the compound N#Cc1c(N2CCOCC2)sc(-c2ccn[nH]2)c1-c1ccc(Cl)cc1 tested on PRP4; state its %Inh.
Result: 56

Q: Answer with %Inh of CC(C)(C)n1cnc2c(N)ncnc21 measured for PRP4.
Result: 17

Q: State recorded %Inh with PRP4, entry Fc1ccc(-c2ncn(CCCN3CCOCC3)c2-c2ccccn2)cc1 , no comment.
Result: 44

Continuing:
Q: Give %Inh for this entry on PRP4: O=C1NC(=O)C(N2CCc3ccccc32)=C1c1cccc(Cl)c1
Result: 8

Q: Report %Inh on PRP4 for this entry: COc1cc2c(cc1OC[C@@H](O)CO)ncc1c3ccc(C#N)cc3[nH]c21
Result: 9

====

- Tested on: AURKA
- protocol_conditions: concentration: 1 μM, replicates: in singlicate; n = 1
measure_name: %Inh (%)
// return numeric value only (unit: %, not printed)

Examples with their reported %Inh follow.
Q: For Cc1ccc(C(=O)NCC(N)=O)cc1-n1c(C)cc(OCc2ccc(F)cc2F)c(Br)c1=O , write its %Inh.
Result: 0

Q: Identify measured %Inh corresponding to NS(=O)(=O)c1cccc(-c2ccc3ncc(N4CCOCC4)nc3c2)c1
Result: 19

Q: Annotate the compound NS(=O)(=O)c1cccc(-c2ccc3nccc(-c4cccc(S(N)(=O)=O)c4)c3c2)c1 with its measured %Inh.
Result: 19

Q: Specify measured %Inh for COc1cc2c(cc1OCCN1CCN(C)CC1)ncc1c3ccc(C#N)cc3[nH]c21 .
Result: 0

Q: Supply %Inh value. Item: Cc1nnc(-c2ccc3ncc(-c4ccc(S(C)=O)cc4)n3c2)o1 (centres unmarked)
Result: 18

Others:
Q: Determine its reported %Inh: Cc1c2ccc(N(C)c3ccnc(Nc4cccc(S(N)(=O)=O)c4)n3)cc2nn1Cc1ccccc1.Cl.Cl
Result: 29

Q: Identify the reported %Inh for the following entry. O=c1cc(N2CCOCC2)nc2n(Cc3cccc(C(F)(F)F)c3)ccn12
Result: 13

Q: In one line, give reported %Inh of the entry CCCCCc1nc2c(N)ncnc2n1CCCCC .
Result: 10

Q: Complete the entry with %Inh for COc1cc2ncn(-c3cc(OCc4sccc4Cl)c(C(N)=O)s3)c2cc1OC
Result: 0

Q: Entry C[C@@H](Oc1cc(-n2cnc3ccc(NC(=O)NC(C)(C)C)cc32)sc1C(N)=O)c1ccccc1Cl needs its %Inh filled in; supply it.
Result: 8

Q: State, in one line, measured %Inh of Cl.Nc1ncnc2occ(-c3ccc(NC(=O)Nc4cc(C(F)(F)F)ccc4F)cc3)c12
Result: 53

====

- Tested on: LIMK2
- protocol_conditions: concentration: 1 μM, replicates: in singlicate; n = 1
Response field label: string, one of criterion met (%Inh strictly below 7%) or criterion not met.

Use these answered entries as a reference point.
Q: Bench note: check whether O=C(NOCC1CC1)c1ccc(F)c(F)c1Nc1ccc(I)cc1Cl shows %Inh below 7%
Result: criterion met

Q: Quick check: %Inh of O=c1cc(N2CCOCC2)nc2n(Cc3cccc4ccccc34)ccn12 under 7%?
Result: criterion met

Q: Problem: For the compound Cc1ccc(NC(=O)c2ccnc(N3CCN(C)CC3)c2)cc1-c1ccc(C(=O)NCC2CC2)cc1 , is %Inh under 7%?
Result: criterion met

More entries:
Q: Input COc1cc(Nc2nccc(N3CCC(NC(=O)c4cccc(NC(C)=O)c4)C3)n2)cc(OC)c1OC (stereo not drawn) ; condition: %Inh strictly below 7%. Does it hold?
Result: criterion met

Q: Report whether reported %Inh is lower than 7% (strictly) for O=c1cc(N2CCOCC2)nc2n(Cc3cccc(F)c3)ccn12
Result: criterion met

Q: Does the reported %Inh of the following compound sit strictly below 7%? Cl.Nc1ncnc2occ(-c3ccc(NC(=O)Nc4cc(C(F)(F)F)ccc4F)cc3)c12
Result: criterion not met

Q: In plain terms, does Cn1ccc2ncnc(Oc3ccc(NC(=O)Nc4ccncc4)c(Cl)c3)c21 come in under 7% for %Inh?
Result: criterion met

Q: %Inh under 7%? Item: Cc1cn2c(=O)cc(N3CCOCC3)nc2n1Cc1cccc(Cl)c1Cl
Result: criterion met

Q: Check if %Inh falls below 7% for NCC(NC(=O)c1cc(-c2cn[nH]c2)c(-c2ccnc3[nH]ccc23)s1)c1ccccc1.O=C(O)C(F)(F)F.O=C(O)C(F)(F)F (stereo not drawn) .
Result: criterion not met

Q: Quick check: does N#Cc1c(N2CCOCC2)sc(-c2ccn[nH]2)c1-c1ccc(Cl)cc1 have %Inh under 7%?
Result: criterion met

====

- Tested on: PAK7
- protocol_conditions: concentration: 1 μM, replicates: in singlicate; n = 1
Recorded %Inh values for a group of compounds are listed next.
Numbers only here, please. The scale is %.

Q: Entry O=c1cc(N2CCOCC2)nc2n(Cc3cccc(F)c3)ccn12 needs its %Inh filled in; supply it.
Result: 0

Q: Name the recorded %Inh of the compound listed here: COc1cc2c(cc1OC[C@@H](O)CO)ncc1c3ccc(C#N)cc3[nH]c21
Result: 11

Q: Provide measured %Inh value, entry: Cc1nnc(-c2ccc3ncc(-c4ccc(S(C)=O)cc4)n3c2)o1 (stereo not drawn)
Result: 5

Q: Write down %Inh measured for item NS(=O)(=O)c1cccc(-c2ccc3ncc(N4CCOCC4)nc3c2)c1
Result: 26

Q: Give recorded %Inh. COCCNC(=O)c1ccc(-c2cc(C(=O)NC3CC3)cc(F)c2C)cc1
Result: 24

Q: Provide measured %Inh value, entry: CN(C(=O)c1ccc(-c2cc(-c3c[nH]nc3-c3ccccn3)ccn2)cc1)C1CCOCC1
Result: 16

Q: Give the reported %Inh for this compound. NS(=O)(=O)c1cccc(-c2ccc3nccc(-c4cccc(S(N)(=O)=O)c4)c3c2)c1
Result: 6

Q: Tell us which %Inh value is on record for COc1ccc(COc2cc(-n3cnc4ccccc43)sc2C(N)=O)cc1
Result: 5

Next:
Q: Indicate its recorded %Inh; the compound in question is CCc1ccnc(/C=C/c2n[nH]c3cc(Sc4ccccc4C(=O)NC)ccc23)c1
Result: 0

====

- Tested on: BUB1
- protocol_conditions: concentration: 1 μM, replicates: in singlicate; n = 1
measure_name: %Inh (%)
Numeric only. Scale: %

Look over these answered cases.
Q: Look up and state reported %Inh for NCC(NC(=O)c1cc(-c2cn[nH]c2)c(-c2ccnc3[nH]ccc23)s1)c1ccccc1.O=C(O)C(F)(F)F.O=C(O)C(F)(F)F (stereo not drawn)
Result: 94.6

Q: State, in one line, measured %Inh of Cc1nnc(-c2ccc3ncc(-c4ccc(S(C)=O)cc4)n3c2)o1 (stereo not drawn)
Result: 16

---
Q: Given the molecule O=C1Cc2cc(Nc3nc(NCc4cccc(S(=O)(=O)C(F)(F)F)c4)ncc3C(F)(F)F)ccc2N1 , write its reported %Inh.
Result: 34

====

- Tested on: LATS2
- protocol_conditions: concentration: 1 μM, replicates: in singlicate; n = 1
Form field: %Inh (one value per entry).
Just the number in %, nothing appended.

Q: Query %Inh for COc1ccc(COc2cc(-n3cnc4ccccc43)sc2C(N)=O)cc1 [GSK1024304]
Result: 0

Q: Give recorded %Inh. Cl.Oc1cccc(Nc2ccnc3cc(-c4ccncc4)ccc23)c1 [GW494601]
Result: 0

Now take the following compound into account.
Q: Using known records, supply %Inh for COc1cc2c(cc1OC[C@@H](O)CO)ncc1c3ccc(C#N)cc3[nH]c21
Result: 41

====

# %Inh values compiled below
- Test system: MEK5
- Construct: gene MAP2K5
- protocol_conditions: concentration: 1 μM, replicates: in singlicate; n = 1
Give just the number in %; leave the unit off.

Q: Answer with %Inh of COc1ccc(Nc2ncc(C#N)c(Nc3ccccc3C(N)=O)n2)cc1N1CCN(C)CC1.Cl [GSK1558669] measured for MEK5.
Result: 100

Q: Write down measured %Inh (MEK5) for this molecule. Cn1ccc2ncnc(Oc3ccc(NC(=O)Nc4ccncc4)c(Cl)c3)c21
Result: 4

More entries:
Q: Would you please give the reported %Inh of NS(=O)(=O)c1cccc(-c2ccc3nccc(-c4cccc(S(N)(=O)=O)c4)c3c2)c1 [GW867253] with MEK5?
Result: 41

Q: Jot down %Inh (MEK5) of COc1ccc(S(=O)(=O)NC2CCN(c3cc(C)nc(Nc4cccc(C#N)c4)n3)CC2)cc1.O=C(O)C(F)(F)F [GSK1653539] .
Result: 1

====

- System: CDK8
- protocol_conditions: concentration: 1 μM, replicates: in singlicate; n = 1
This section presents compounds with their documented %Inh values.

Q: Answer with the recorded %Inh for the compound listed here: O=C(NOCC1CC1)c1ccc(F)c(F)c1Nc1ccc(I)cc1Cl
Result: 0%

Q: In one line, give reported %Inh of the entry N#Cc1ccc(-c2cc(-c3c[nH]nc3-c3ccccn3)ccn2)cc1 .
Result: 23%

Q: Tell us which %Inh value is on record for NS(=O)(=O)c1cccc(-c2ccc3ncc(N4CCOCC4)nc3c2)c1
Result: 31%

Q: Assign %Inh to the following record: CN1c2ccc(CNc3ccc(F)cc3)cc2-c2c(cnn2C)S1(=O)=O
Result: 0%

Q: Specify %Inh for Cc1ccc(NC(=O)c2ccnc(N3CCN(C)CC3)c2)cc1-c1ccc(C(=O)NCC2CC2)cc1 and stop.
Result: 0%

Q: Answer with the recorded %Inh of Cn1cc(-c2ccc3c(c2)CCN3C(=O)Cc2ccccc2Cl)c2c(N)ncnc21 only.
Result: 7%

New cases:
Q: For the compound O=C1Cc2cc(Nc3nc(NCc4cccc(S(=O)(=O)C(F)(F)F)c4)ncc3C(F)(F)F)ccc2N1 , report %Inh.
Result: 3%
